Target: UniProt P41145
Sequence (P41145 whole entry): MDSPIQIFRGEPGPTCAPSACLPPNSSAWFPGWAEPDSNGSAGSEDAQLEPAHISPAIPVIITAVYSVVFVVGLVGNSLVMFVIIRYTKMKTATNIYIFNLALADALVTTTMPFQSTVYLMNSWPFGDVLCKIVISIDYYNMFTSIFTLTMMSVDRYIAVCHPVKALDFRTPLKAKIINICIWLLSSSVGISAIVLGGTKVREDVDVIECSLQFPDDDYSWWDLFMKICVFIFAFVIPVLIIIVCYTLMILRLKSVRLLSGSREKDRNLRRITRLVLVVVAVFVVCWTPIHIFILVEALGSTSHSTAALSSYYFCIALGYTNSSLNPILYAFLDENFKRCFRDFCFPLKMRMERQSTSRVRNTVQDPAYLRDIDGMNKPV
measured endpoint: pKi
Kindly note that pKi refers to -log10 of the concentration in mol/L and answer with the value alone.

Tell us which pKi value is on record for CN(C)CCCC1(c2ccc(F)cc2)OCc2cc(-c3ncc[nH]3)ccc21 (stereo not shown)
7.33
